assay: logP determination by HPLC on a reversed-phase column (C 18), EEC Directive 79/831 Annex V.A8; format: physicochemical; conditions: value marked [b]
reported property: logP

Record excerpt, results attached:
Exam item: # get_value(readout='logP', item= C=C(CON=C(C)c1cccc(C)n1)CON=C(C)c1ncccc1C (single isomer, unassigned) )
Marked response: 3.11^[b] (isomer B)

Exam item: # get_value(readout='logP', item= CC(=NOCCCCCCON=C(Cc1ccccc1)c1ncccc1C)c1cccc(C)n1 [compound 339] )
Marked response: 5.90^[b] (isomer B)

Others:
Exam item: # get_value(readout='logP', item= CC(=NOCCCCON=C(C)c1cccc(C)n1)c1ccccc1 )
Marked response: 4.68^[b]

Exam item: # get_value(readout='logP', item= CCC(=NOCC(C)(C)CON=C(CC)c1cccc(C)n1)c1cccc(C)n1 )
Marked response: 6.81^[b]

Exam item: # get_value(readout='logP', item= COc1c(Cl)cc(C(C)=NOCC(C)CON=C(C)c2cc(Cl)c(OC)c(C)n2)nc1C (stereo not drawn) )
Marked response: 7.36^[b]

Exam item: # get_value(readout='logP', item= CC(=NOCCCCON=C(C)c1cccc(C)n1)c1cccc(Cl)c1 )
Marked response: 5.54^[b]
